We begin with a simple list: items and their reported IC50.
target: C-C chemokine receptor type 1 (Homo sapiens); assay: Inhibitory activity against human Chemokine receptor type 1 expressed in chinese hamster ovary cells; assay type: cell-based, CHO
All answers are understood in µM, so give the number only.

[[record]]
molecular_string = "O=C(NCC(CCCN1CCC(O)(c2ccc(Cl)cc2)CC1)(c1ccccc1)c1ccccc1)Nc1ccncc1"
endpoint = "IC50"
unit_of_measurement = "µM"
recorded_measurement = 0.167


In the following, a different compound is considered.
Q: Name the recorded IC50 for `O=C(NCC(CCCN1CCC(O)(c2ccc(Cl)cc2)CC1)(c1ccccc1)c1ccccc1)Nc1ccc(C(F)(F)F)cc1` .
Result: 0.89

* * *

target: C-C chemokine receptor type 3 (Homo sapiens); experiment: Inhibitory activity against recombinant human Chemokine receptor type 3 (CCR3) expressed in chinese hamster ovary cells; assay type: cell-based, CHO
pIC50: −log10 of the molar value.
Class membership depends on pIC50 alone; the intervals are band A = under 6, band B = from 6 up to 7, band C = 7 and over

Consider the worked cases shown below.
[[record]]
compound = "O=C(NCC(CCCN1CCC(O)(c2ccc(Cl)cc2)CC1)(c1ccccc1)c1ccccc1)Nc1ccccc1"
label = "band A"

[[record]]
compound = "O=C(NCCN1CCCCC1)Nc1ccccc1CN1CCC(Cc2ccccc2)CC1"
label = "band A"

[[record]]
compound = "OC1(c2ccc(Cl)cc2)CCN(CCCCc2ccccc2)CC1"
label = "band A"

[[record]]
compound = "CC(C)(C)NC(=O)NCC(CCCN1CCC(O)(c2ccc(Cl)cc2)CC1)(c1ccccc1)c1ccccc1"
label = "band A"

[[record]]
compound = "O=C(NCCCO)Nc1ccccc1CN1CCC(Cc2ccccc2)CC1"
label = "band A"


Q: Record `O=C(Nc1ccc(F)cc1)Nc1ccccc1CCN1CCC(Cc2ccc(F)cc2)CC1` — which class?
Result: band C

Q: Next compound: `CC(C)NC(=O)NCC(CCCN1CCC(O)(c2ccc(Cl)cc2)CC1)(c1ccccc1)c1ccccc1`
Result: band A

* * *

Target: C-C chemokine receptor type 3 (Homo sapiens, UniProt P51677)
Sequence (P51677 whole entry): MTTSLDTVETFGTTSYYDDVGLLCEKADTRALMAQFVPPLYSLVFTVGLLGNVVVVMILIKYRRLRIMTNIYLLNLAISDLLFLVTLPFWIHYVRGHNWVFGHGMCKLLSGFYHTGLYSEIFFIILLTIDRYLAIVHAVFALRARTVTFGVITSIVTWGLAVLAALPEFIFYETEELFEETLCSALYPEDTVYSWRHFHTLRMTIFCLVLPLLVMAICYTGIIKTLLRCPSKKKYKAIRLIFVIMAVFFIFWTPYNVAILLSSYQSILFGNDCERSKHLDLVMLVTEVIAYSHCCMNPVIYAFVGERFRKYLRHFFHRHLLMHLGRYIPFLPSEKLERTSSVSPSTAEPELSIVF
Test: Inhibitory activity against recombinant human Chemokine receptor type 3 (CCR3) expressed in chinese hamster ovary cells
Assay type: cell-based, CHO
# IC50 per entry
Numbers only; they are read as µM.

Worked examples follow.
[[record]]
molecule = "COC(=O)c1cccc(NC(=O)Nc2cccc(C(C)=O)c2)c1CN1CCC(Cc2ccc(F)cc2)CC1"
unit_of_measurement = "µM"
recorded_measurement = 0.008

[[record]]
molecule = "N#CC(CCCN1CCC(O)(c2ccc(Cl)cc2)CC1)(c1ccccc1)c1ccccc1 [BERLEX COMPOUND]"
unit_of_measurement = "µM"
recorded_measurement = 9

[[record]]
molecule = "N#CC(CCCN1CCN(Cc2ccccc2)CC1)(c1ccccc1)c1ccccc1"
unit_of_measurement = "µM"
recorded_measurement = 14.1

[[record]]
molecule = "O=C(NCC(c1ccccc1)c1ccccc1)Nc1ccccc1CN1CCC(Cc2ccccc2)CC1"
unit_of_measurement = "µM"
recorded_measurement = 2.65

[[record]]
molecule = "CC(=O)c1cccc(NC(=O)Nc2cccc(C(N)=O)c2CN2CCC(Cc3ccc(F)cc3)CC2)c1"
unit_of_measurement = "µM"
recorded_measurement = 0.002

[[record]]
molecule = "COc1cccc(NC(=O)Nc2ccccc2C(O)CN2CCC(Cc3ccc(F)cc3)CC2)c1 (configuration not stated)"
unit_of_measurement = "µM"
recorded_measurement = 0.021

[[record]]
molecule = "N#Cc1cccc(NC(=O)Nc2ccccc2CCN2CCC(Cc3ccccc3)CC2)c1"
unit_of_measurement = "µM"
recorded_measurement = 0.14

[[record]]
molecule = "NCC(CCCN1CCC(O)(c2ccc(Cl)cc2)CC1)(c1ccccc1)c1ccccc1"
unit_of_measurement = "µM"
recorded_measurement = 12


Q: Consider the molecule shown here: `CC(=O)c1cccc(NC(=O)Nc2ccc(C(N)=O)cc2CN2CCC(Cc3ccc(F)cc3)CC2)c1` What is its recorded IC50?
Result: 0.003

Q: Then `O=C(NCC(c1ccccc1)c1ccccc1)Nc1ccccc1CN1CCC(C(=O)c2ccccc2)CC1` ?
Result: 3.9

Q: How about `N#Cc1cccc(NC(=O)Nc2cc3c(cc2CN2CCC(Cc4ccc(F)cc4)CC2)OCO3)c1` ?
Result: 0.085

* * *

pIC50 overview
Target: C-C chemokine receptor type 3 (Homo sapiens, UniProt P51677)
Sequence (P51677 whole entry): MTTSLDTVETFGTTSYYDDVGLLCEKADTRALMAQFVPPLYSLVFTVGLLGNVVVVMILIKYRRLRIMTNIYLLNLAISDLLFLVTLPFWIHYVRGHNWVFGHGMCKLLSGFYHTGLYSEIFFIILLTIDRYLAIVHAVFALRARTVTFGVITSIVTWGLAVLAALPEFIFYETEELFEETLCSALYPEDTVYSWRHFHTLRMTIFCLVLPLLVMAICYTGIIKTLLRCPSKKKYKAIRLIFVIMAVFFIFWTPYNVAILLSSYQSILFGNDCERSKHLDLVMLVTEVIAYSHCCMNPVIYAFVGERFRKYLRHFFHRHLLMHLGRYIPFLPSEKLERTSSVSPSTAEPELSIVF
Test: Inhibitory activity against recombinant human Chemokine receptor type 3 (CCR3) expressed in chinese hamster ovary cells
Type: cell-based, CHO
Conceptually, pIC50 converts a concentration in mol/L into minus its log10.

Q: Please look up its pIC50: `O=C(NCCc1ccc(F)cc1)Nc1ccccc1CN1CCC(Cc2ccccc2)CC1`
Result: 5.42

* * *

Each record here notes measured IC50.
biological target: C-C chemokine receptor type 3 (Homo sapiens, UniProt P51677); test: Inhibitory activity against recombinant human Chemokine receptor type 3 (CCR3) expressed in chinese hamster ovary cells; type: cell-based, CHO

Worked cases, answers included:
[[record]]
molecular_string = "N#Cc1cccc(NC(=O)Nc2cccc(CN3CCC(Cc4ccccc4)CC3)c2)c1"
recorded_measurement = "0.45 µM"

[[record]]
molecular_string = "COC(=O)c1cccc(NC(=O)Nc2cccc(OC)c2)c1CN1CCC(Cc2ccc(F)cc2)CC1"
recorded_measurement = "0.011 µM"

[[record]]
molecular_string = "COc1ccc(NC(=O)NCC(CCCN2CCC(O)(c3ccc(Cl)cc3)CC2)(c2ccccc2)c2ccccc2)cc1"
recorded_measurement = "7.6 µM"


Q: Report IC50 for `CNC(=O)c1cccc(NC(=O)Nc2cccc(C#N)c2)c1CN1CCC(Cc2ccc(F)cc2)CC1` please.
Result: 0.001 µM

* * *

Biological target: C-C chemokine receptor type 1 (Homo sapiens, UniProt P32246)
Sequence (P32246 whole entry): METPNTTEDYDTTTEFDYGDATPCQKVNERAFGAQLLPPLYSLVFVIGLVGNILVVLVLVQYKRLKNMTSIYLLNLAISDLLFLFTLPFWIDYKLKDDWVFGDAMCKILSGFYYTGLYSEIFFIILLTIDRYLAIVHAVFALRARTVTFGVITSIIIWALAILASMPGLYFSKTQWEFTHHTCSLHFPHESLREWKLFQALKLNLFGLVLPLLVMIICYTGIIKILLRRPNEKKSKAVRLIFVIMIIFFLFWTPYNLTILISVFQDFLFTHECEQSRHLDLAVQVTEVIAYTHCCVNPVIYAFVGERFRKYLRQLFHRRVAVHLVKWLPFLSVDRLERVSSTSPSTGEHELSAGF
Test: Inhibitory activity against human Chemokine receptor type 1 expressed in chinese hamster ovary cells
pIC50: −log10 of the molar value.
Listed here are compounds together with their documented pIC50.

[[record]]
molecular_string = "c1ccc(CCCCN2CCC(Cc3ccccc3)CC2)cc1"
recorded_measurement = "< 4.30"

[[record]]
molecular_string = "CC(C)NC(=O)NCC(CCCN1CCC(O)(c2ccc(Cl)cc2)CC1)(c1ccccc1)c1ccccc1"
recorded_measurement = "> 6.11"


Q: Look up pIC50 with C-C chemokine receptor type 1 (Homo sapiens, UniProt P32246) for this compound: `O=C(NCC(CCCN1CCC(O)(c2ccc(Cl)cc2)CC1)(c1ccccc1)c1ccccc1)Nc1ccccc1`
Result: > 6.11

* * *

molecular target: C-C chemokine receptor type 3 (Homo sapiens, UniProt P51677); experiment: Inhibitory activity against recombinant human Chemokine receptor type 3 (CCR3) expressed in chinese hamster ovary cells; format: cell-based, CHO
# IC50 values compiled below
Report the value in nM with no unit label.

[[record]]
molecule = "N#Cc1cccc(NC(=O)Nc2ccccc2CN2CCC(Cc3ccccc3)CC2)c1"
endpoint = "IC50"
recorded_measurement = 750

[[record]]
molecule = "Fc1ccc(CCCN2CCC3C(C2)c2cccc4c2N3CC4)cc1 (stereo not drawn)"
endpoint = "IC50"
recorded_measurement = 1000

[[record]]
molecule = "COc1cccc(NC(=O)Nc2ccccc2CN2CCC(Cc3ccccc3)CC2)c1"
endpoint = "IC50"
recorded_measurement = 600

[[record]]
molecule = "COc1cccc(NC(=O)NCc2ccccc2CN2CCC(Cc3ccccc3)CC2)c1"
endpoint = "IC50"
recorded_measurement = 2400

[[record]]
molecule = "O=C(Nc1ccc2[nH]ncc2c1)Nc1cc2c(cc1CN1CCC(Cc3ccccc3)CC1)OCO2"
endpoint = "IC50"
recorded_measurement = 260


Q: Can you look up the measured IC50 of `N#Cc1cccc(NC(=O)Nc2cc(CO)ccc2CN2CCC(Cc3ccccc3)CC2)c1` for me?
Result: 114

Q: Now consider `N#Cc1cccc(NC(=O)Nc2cc3c(cc2CN2CCC(Cc4ccccc4)CC2)OCO3)c1` and answer again.
Result: 237

Q: Okay, and `CNC(=O)c1cccc(NC(=O)Nc2ccccc2)c1CN1CCC(Cc2ccc(F)cc2)CC1` ?
Result: 2

Q: // same read-out, input: `N#Cc1cccc(NC(=O)Nc2ccccc2CCN2CCC(Cc3ccc(F)cc3)CC2)c1`
Result: 14

Q: Continue with CC(=O)c1cccc(NC(=O)Nc2cc3c(cc2C[N+]2(C)CCC(Cc4ccc(F)cc4)CC2)OCO3)c1 (stereo not drawn)
Result: 1

Q: # repeat for `O=C(NCC(CCCN1CCC(O)(c2ccc(Cl)cc2)CC1)(c1ccccc1)c1ccccc1)Nc1cccc(C(F)(F)F)c1`
Result: 19300

Q: How about this molecule: `COc1cccc(NC(=O)Nc2ccccc2CCN2CCC(Cc3ccccc3)CC2)c1`
Result: 180

Q: Proceed to N#Cc1cccc(NC(=O)Nc2ccccc2C(O)CN2CCC(Cc3ccccc3)CC2)c1 (stereo not drawn)
Result: 49

This collection of values is drawn from ChEMBL document CHEMBL1135587.
